Origin of measurements: paper PMC12416549

Could you please report measured apparent Kd (screen) for the items listed next?
experimental system: T1, TNFR1 (Homo sapiens, UniProt P19438)
T1 chain: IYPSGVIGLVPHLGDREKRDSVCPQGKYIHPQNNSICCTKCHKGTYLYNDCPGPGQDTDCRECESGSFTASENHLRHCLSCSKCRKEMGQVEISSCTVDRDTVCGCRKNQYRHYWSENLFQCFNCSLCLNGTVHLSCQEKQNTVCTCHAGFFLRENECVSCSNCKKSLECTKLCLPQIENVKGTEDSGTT
assay remarks: yeast display SC50

Problem: Looking for the measured apparent Kd (screen) of R50K (designed binder) MTLQELLREEALRRAEAEAFRYALELLAEKFPEQKEYLLDLAEEIESQIKSLSGVDVEDVRKFLDKEWAWVKELLAEHPAELAEVEAARAARLAELRAEVEAKVAA , can you help?
Solution: 0.539 nM

Problem: Which apparent Kd (screen) value belongs to V104G (designed binder) MTLQELLREEALRRAEAEAFRYALELLAEKFPEQKEYLLDLAEEIESQIRSLSGVDVEDVRKFLDKEWAWVKELLAEHPAELAEVEAARAARLAELRAEVEAKGAA ?
Solution: 0.653 nM
